assayed system: R132C IDH1 mutant HT-1080 cells (Homo sapiens, UniProt O75874, R132C)
Sequence (O75874 whole entry R132C): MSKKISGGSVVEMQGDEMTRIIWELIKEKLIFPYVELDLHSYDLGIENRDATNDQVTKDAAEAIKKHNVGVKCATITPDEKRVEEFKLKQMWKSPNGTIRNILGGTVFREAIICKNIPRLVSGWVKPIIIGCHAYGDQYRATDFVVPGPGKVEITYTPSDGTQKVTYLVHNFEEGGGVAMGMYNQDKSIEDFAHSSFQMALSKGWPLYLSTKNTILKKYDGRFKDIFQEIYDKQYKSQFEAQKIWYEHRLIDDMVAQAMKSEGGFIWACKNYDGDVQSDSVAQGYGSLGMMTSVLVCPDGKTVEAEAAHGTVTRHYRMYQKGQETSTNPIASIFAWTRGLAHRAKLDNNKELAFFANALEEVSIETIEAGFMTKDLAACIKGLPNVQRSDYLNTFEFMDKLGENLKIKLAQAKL
Sequence (O75874 whole entry partner): as the sequence (O75874 whole entry R132C) above, with C132R counted along it
assay explanation: Quantification of intracellular 2-HG in HT-1080 cells
reported property: pEC50
Kindly note that pEC50 refers to -log10 of the concentration in mol/L and answer with the value alone.

Data request: Find the recorded pEC50 belonging to COc1c(C)cc(NC(=O)c2nn(Cc3ccc(F)cc3)c3c2CN(C(=O)c2ccc[nH]2)C[C@]3(C)C(N)=O)cc1C and report it.
Data returned: 6.49

----------
assayed system: IDH2 SW1353 cell 2-HG (Homo sapiens, UniProt P48735, R172S)
Sequence (P48735 40-452 R172S): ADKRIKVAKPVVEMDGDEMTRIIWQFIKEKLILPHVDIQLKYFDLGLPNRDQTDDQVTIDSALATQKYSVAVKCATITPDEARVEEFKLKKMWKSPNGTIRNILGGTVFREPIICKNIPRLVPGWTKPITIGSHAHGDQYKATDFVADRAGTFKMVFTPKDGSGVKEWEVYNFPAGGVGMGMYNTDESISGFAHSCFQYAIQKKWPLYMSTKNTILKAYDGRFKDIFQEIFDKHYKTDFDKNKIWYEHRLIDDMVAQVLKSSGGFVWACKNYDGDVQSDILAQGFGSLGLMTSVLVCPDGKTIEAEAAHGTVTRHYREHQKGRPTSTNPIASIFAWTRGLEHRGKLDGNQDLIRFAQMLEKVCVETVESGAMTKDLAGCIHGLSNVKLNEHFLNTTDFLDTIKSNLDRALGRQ
assay explanation: IDH2 cellular 2-HG assay in SW1353 cells
conditions used: read-out: IDH2 IC50 SW1353 cell 2-HG
reported property: IC50 (µM)
Record the value in µM, omitting the unit from your answer.

Data request: Value lookup for IC50; key = C[C@H](O)c1cccc(NC(=O)c2nn(Cc3ccc(F)cc3)c3c2CN(C(=O)c2ccc[nH]2)C[C@H]3C)c1
Data returned: 4.69
